FKBP12 (Homo sapiens, UniProt P62942): recorded pKi for assorted molecules
Sequence (P62942 whole entry, species assumed): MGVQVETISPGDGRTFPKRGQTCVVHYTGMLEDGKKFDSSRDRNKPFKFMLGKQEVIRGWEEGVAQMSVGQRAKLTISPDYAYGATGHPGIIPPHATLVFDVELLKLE
pKi: −log10 of the molar value.

For each of the molecules below, state pKi.
1. C=C(C(=O)N1CCC[C@H]1C(=O)O)C(C)(C)CC
2. C=C(C(=O)N1CCCC[C@H]1C(=O)O)C(C)(C)CC

1. < 5.11
2. < 5.00

Reference for the values: patent US6376517B1
